Tested on: Artemia salina
Assay: Toxicity in Artemia salina assessed as inhibition of egg hatching after 48 hrs
Assay type: organism-based
Experimental Endpoint: IC50

Please review the following examples before continuing.
[[record]]
chemical_structure = "COc1cc(O)c2c(=O)c(O[C@H]3O[C@H](C)[C@@H](O)[C@H](OC(=O)c4cc(O)c(O)c(O)c4)[C@@H]3O)c(-c3cc(O)c(O)c(O)c3)oc2c1"
experimental_endpoint = "IC50"
measured = "50 µg/mL"

[[record]]
chemical_structure = "C[C@H]1O[C@H](Oc2c(-c3cc(O)c(O)c(O)c3)oc3cc(O)cc(O)c3c2=O)[C@@H](O)[C@@H](OC(=O)c2cc(O)c(O)c(O)c2)[C@@H]1O"
experimental_endpoint = "IC50"
measured = "64 µg/mL"

[[record]]
chemical_structure = "COc1cc(O)c2c(=O)c(O[C@H]3O[C@H](C)[C@@H](O)[C@H](O)[C@@H]3OC(=O)c3cc(O)c(O)c(O)c3)c(-c3cc(O)c(O)c(O)c3)oc2c1"
experimental_endpoint = "IC50"
measured = "89 µg/mL"


Lab note: next compound to report on.
Q) Looking for the measured IC50 of C[C@H]1O[C@H](Oc2c(-c3cc(O)c(O)c(O)c3)oc3cc(O)cc(O)c3c2=O)[C@@H](OC(=O)c2cc(O)c(O)c(O)c2)[C@@H](O)[C@@H]1O , can you help?
A) 75 µg/mL
